Data credit: patent EP0725068A1

Biological target: colonic 5-HT3 receptors (Cavia porcellus, UniProt O70212)
Construct: the distal colons (3-10 cm from the anus) were isolated and suspended in a Magnus tube filled with Krebs solution; from tissue; host or cells: isolated distal colon of male Hartley guinea pig
Sequence (O70212 20-490): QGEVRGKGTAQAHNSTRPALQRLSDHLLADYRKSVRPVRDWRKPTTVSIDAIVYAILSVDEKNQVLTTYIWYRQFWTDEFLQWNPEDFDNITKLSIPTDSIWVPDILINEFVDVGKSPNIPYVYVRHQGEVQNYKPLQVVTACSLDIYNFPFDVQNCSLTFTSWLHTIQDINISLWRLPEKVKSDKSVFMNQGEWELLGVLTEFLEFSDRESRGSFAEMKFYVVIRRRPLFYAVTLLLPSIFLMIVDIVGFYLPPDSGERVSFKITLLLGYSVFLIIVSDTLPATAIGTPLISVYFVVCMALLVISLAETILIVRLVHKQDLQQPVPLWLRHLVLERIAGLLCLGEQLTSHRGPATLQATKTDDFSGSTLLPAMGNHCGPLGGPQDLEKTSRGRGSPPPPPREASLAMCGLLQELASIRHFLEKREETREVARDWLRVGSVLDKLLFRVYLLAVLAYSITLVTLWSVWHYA
Experiment: Colonic 5-HT3 receptor antagonism: inhibition of 2-methylserotonin-induced contraction of isolated distal colon (Test 1)
Type: biochemical, guinea pigs
Settings: molar antagonist concentration corresponding to pA2; guinea pig distal colon, 2-methylserotonin
Counter-ions that a name gives are not always drawn.
REPORTED ENDPOINT: M (×10^-9 Mole)

# return M (×10^-9 Mole) for each item in the list
1. Cc1[nH]cnc1CN1CCc2c(c3cccc4c3n2CC4)C1=O
2. Cc1[nH]cnc1CN1CCCc2c(c3cccc4c3n2CC4)C1=O

Given back:
1. 10 ×10^-9 Mole
2. >10 ×10^-9 Mole

# return M (×10^-9 Mole) for each item in the list
1. Cc1[nH]cnc1CN1CCc2c(c3cccc4c3n2-c2ccccc2CC4)C1=O
2. Cc1[nH]cnc1CN1CCCc2c(c3cccc4c3n2CCC4)C1=O
3. Cc1nccn1CC1CCc2c(c3ccccc3n2C)C1=O (centres unmarked) [Ondansetron hydrochloride, hydrochloride dihydrate]
4. Cc1[nH]cnc1CN1CCc2c(c3cccc4c3n2CCC4)C1=O
5. Cc1[nH]cnc1CN1CCc2c(c3cccc4c3n2CCO4)C1=O
6. CN1C2CCC1CC(N1CCc3c(c4cccc5c4n3CCC5)C1=O)C2 (centres unmarked)

Given back:
>10 ×10^-9 Mole
>10 ×10^-9 Mole
227 ×10^-9 Mole
10 ×10^-9 Mole
>10 ×10^-9 Mole
>10 ×10^-9 Mole
